Origin of the recorded values: paper PMC6792352

- Test system: GH3-TRE-Luc cell line
- cond: rat, 24 h
Structures can show the parent of a compound that is named as a salt.
recordedMetric: TR_LUC_GH3_Antagonist_viability hitc

Request: Query (molecule): "C[C@H](CCC(=O)NCC(=O)O)[C@H]1CC[C@H]2[C@@H]3[C@H](O)C[C@@H]4C[C@H](O)CC[C@]4(C)[C@H]3C[C@H](O)[C@]12C" ; field requested: TR_LUC_GH3_Antagonist_viability hitc
Result: 0

Request: Please do the same for COc1ccc(OC)c(C(O)C(C)N)c1 (stereo not shown) [Methoxamine hydrochloride] as well.
Result: 0

Request: Repeat for the following molecule: "O=c1[nH]cnc2c1ncn2[C@H]1CC[C@@H](CO)O1"
Result: 0

Request: Item: CC1=C(/C=C/C(C)=C\C=C\C(C)=C\C(=O)O)C(C)(C)CCC1 [9-cis Retinoic acid, reference compound]
Result: 0

Request: Lookup CC1=C(/C=C/C(C)=C/C=C/C(C)=C/C(=O)O)C(C)(C)CCC1 [all trans-Retinoic acid, reference compound]
Result: 1

Request: Record: NCC(=O)CCC(=O)O [Aminolevulinic acid hydrochloride]
Result: 0

Request: Would you kindly repeat that for CC1=C(/C=C/C(C)=C/C=C/C(C)=C\C(=O)O)C(C)(C)CCC1 [13-cis Retinoic acid, reference compound] ?
Result: 1

Request: Please answer likewise for C=C(c1ccc(C(=O)O)cc1)c1cc2c(cc1C)C(C)(C)CCC2(C)C [Bexarotene, reference compound]
Result: 1

Request: Then what about the molecule O=C(O)Cc1cc(I)c(Oc2ccc(O)c(I)c2)c(I)c1 [Tiratricol, reference compound] ?
Result: 0

Request: Now consider "Nc1ccc(S(=O)(=O)Nc2nccs2)cc1" and answer again.
Result: 0

Request: Further, for "c1csc(-c2ccc(-c3cccs3)s2)c1" ?
Result: 0

Request: Similarly, O=C(O)CCNC(=O)c1ccccc1 [Betamipron, reference compound] ?
Result: 0

Request: Check N[C@@H](Cc1cc(I)c(Oc2ccc(O)c(I)c2)c(I)c1)C(=O)O [3,5,3ʹ-Triiodothyronine, reference compound] too.
Result: 1
